- SYSTEM UNDER TEST: FGFR1 (Homo sapiens, UniProt P11362, C488A/C584S)
- Construct: P1351.pET N6 BI-PTP FGFR A458-E765-X C488A, C584S; made in house; host or cells: E. coli (PTP1B co-expressed)
- Sequence (P11362 458-765 C488A/C584S): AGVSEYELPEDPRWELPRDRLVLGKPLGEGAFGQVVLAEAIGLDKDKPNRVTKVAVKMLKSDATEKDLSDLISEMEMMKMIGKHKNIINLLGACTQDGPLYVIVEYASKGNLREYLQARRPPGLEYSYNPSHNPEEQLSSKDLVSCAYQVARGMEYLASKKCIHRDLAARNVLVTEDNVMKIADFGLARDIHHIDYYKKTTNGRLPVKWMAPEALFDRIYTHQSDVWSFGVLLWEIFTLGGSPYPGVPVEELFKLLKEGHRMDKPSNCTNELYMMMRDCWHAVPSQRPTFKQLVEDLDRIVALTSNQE
- ASSAY INFO: AlphaScreen kinase assay, FGFR1
- Type: biochemical
- CONDITION SET: read-out: IC50, activity toward kinase FGFR
PROPERTY MEASURED: IC50

Q) Answer with the recorded IC50 for the compound listed here: Nc1cccc(-c2cnc3[nH]cc(C(=O)c4cc(O)ccc4F)c3c2)c1
A) ≤ 10 µM

Q) Answer with the recorded IC50 for the compound listed here: CC(C)(C)c1ccc(Cc2c[nH]c3ncccc23)cc1
A) ≤ 10 µM

Q) Answer with the recorded IC50 for the compound listed here: OC(c1ccc2c(c1)OC(F)(F)O2)c1c[nH]c2ncc(Br)cc12 (stereo not shown)
A) ≤ 10 µM

====

- SYSTEM UNDER TEST: Jnk2 (Homo sapiens)
PROPERTY MEASURED: IC50

Recorded results for 5 compounds are shown here.
O=C(Nc1cccc(C(=O)c2c[nH]c3ncc(Cl)cc23)c1)Nc1ccc(Cl)c(C(F)(F)F)c1
≤ 10 µM
O=C(c1cccc(O)c1F)c1c[nH]c2ncc(-c3cncnc3)cc12
≤ 10 µM
COc1ccc(NC(=O)Nc2cccc(C(=O)c3c[nH]c4ncc(-c5cccnc5)cc34)c2)cc1
≤ 10 µM
CS(=O)(=O)Nc1ccc(F)c(C(=O)c2c[nH]c3ncc(-c4cccc(C(N)=O)c4)cc23)c1F
≤ 10 µM
CCCS(=O)(=O)Nc1ccc(F)c(C(=O)c2c[nH]c3ncc(-c4cccnc4)cc23)c1F
≤ 10 µM

Q) GET IC50 where system = Jnk2 (Homo sapiens) and item = O=C(c1c[nH]c2ncc(-c3ccccc3)cc12)c1cccc2c1ccn2C(=O)NCc1ccccc1
A) ≤ 10 µM

Q) GET IC50 where system = Jnk2 (Homo sapiens) and item = COc1ccc(F)c(C(=O)c2c[nH]c3ncc(-c4cccnc4)cc23)c1
A) ≤ 10 µM

Q) GET IC50 where system = Jnk2 (Homo sapiens) and item = CS(=O)(=O)Nc1ccc(F)c(C(=O)c2c[nH]c3ncc(-c4cccnc4)cc23)c1F
A) ≤ 10 µM

====

- SYSTEM UNDER TEST: EphA2 (Homo sapiens, UniProt P29317)
- Sequence (P29317 24-976): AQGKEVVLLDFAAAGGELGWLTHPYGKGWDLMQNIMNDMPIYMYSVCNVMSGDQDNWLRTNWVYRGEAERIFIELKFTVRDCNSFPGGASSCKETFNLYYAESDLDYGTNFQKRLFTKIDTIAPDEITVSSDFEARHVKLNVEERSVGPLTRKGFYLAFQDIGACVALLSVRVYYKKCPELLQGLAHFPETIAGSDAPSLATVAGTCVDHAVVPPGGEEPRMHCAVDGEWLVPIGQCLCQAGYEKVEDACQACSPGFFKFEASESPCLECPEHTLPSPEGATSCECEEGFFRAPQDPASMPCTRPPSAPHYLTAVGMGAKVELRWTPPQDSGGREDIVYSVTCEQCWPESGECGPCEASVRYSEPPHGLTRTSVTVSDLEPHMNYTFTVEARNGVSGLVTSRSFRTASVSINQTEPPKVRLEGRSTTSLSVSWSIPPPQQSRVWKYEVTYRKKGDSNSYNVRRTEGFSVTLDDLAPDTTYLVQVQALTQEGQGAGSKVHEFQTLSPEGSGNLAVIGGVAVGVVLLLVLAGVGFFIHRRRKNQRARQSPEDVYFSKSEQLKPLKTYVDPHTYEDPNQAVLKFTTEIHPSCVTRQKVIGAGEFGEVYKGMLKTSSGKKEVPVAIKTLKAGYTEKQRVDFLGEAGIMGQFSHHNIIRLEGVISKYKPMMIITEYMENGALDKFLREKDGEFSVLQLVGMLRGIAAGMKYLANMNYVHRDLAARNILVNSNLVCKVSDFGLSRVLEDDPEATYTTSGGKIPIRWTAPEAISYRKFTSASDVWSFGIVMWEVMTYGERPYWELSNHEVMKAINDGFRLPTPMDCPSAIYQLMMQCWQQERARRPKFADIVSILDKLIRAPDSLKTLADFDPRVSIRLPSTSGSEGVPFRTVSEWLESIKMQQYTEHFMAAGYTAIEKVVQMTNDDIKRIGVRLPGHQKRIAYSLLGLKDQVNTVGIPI
pIC50: −log10 of the molar value.
PROPERTY MEASURED: pIC50

Q) GET pIC50 where system = EphA2 (Homo sapiens, UniProt P29317) and item = OCCOc1ccc(F)c(Cc2c[nH]c3ncc(-c4cccnc4)cc23)c1F
A) ≥ 5.00

====

- SYSTEM UNDER TEST: B-Raf (Homo sapiens)
- Construct: purchased Upstate Biotechnology
- ASSAY INFO: AlphaScreen kinase assay, B-Raf
- Format: biochemical
- CONDITION SET: read-out: IC50, activity toward kinase B-Raf
pIC50: −log10 of the molar value.
PROPERTY MEASURED: pIC50

Recorded results for 5 compounds are shown here.
CCCS(=O)(=O)Nc1ccc(F)c(C(=O)c2c[nH]c3ncc(N4CCOCC4)cc23)c1F
≥ 5.00
CCc1cnc2[nH]cc(C(=O)c3cccc(O)c3)c2c1
≥ 5.00
CCOc1cccc(Nc2ccnc3[nH]ccc23)c1
≥ 5.00
CCCS(=O)(=O)Nc1ccc(F)c(C(=O)c2c[nH]c3ncc(-c4ccc(OC)cc4)cc23)c1F
≥ 5.00
O=C(c1c(F)ccc(NS(=O)(=O)c2cccc(C(F)(F)F)c2)c1F)c1c[nH]c2ncc(Cl)cc12
≥ 5.00

Q) GET pIC50 where system = B-Raf (Homo sapiens) and item = CCCS(=O)(=O)Nc1ccc(F)c(C(=O)c2c[nH]c3ncc(OCCOC)cc23)c1F
A) ≥ 5.00

====

- SYSTEM UNDER TEST: Flt3 (Homo sapiens, UniProt P36888)
- Construct: purchased Invitrogen (assay run by Invitrogen)
- Sequence (P36888 27-993): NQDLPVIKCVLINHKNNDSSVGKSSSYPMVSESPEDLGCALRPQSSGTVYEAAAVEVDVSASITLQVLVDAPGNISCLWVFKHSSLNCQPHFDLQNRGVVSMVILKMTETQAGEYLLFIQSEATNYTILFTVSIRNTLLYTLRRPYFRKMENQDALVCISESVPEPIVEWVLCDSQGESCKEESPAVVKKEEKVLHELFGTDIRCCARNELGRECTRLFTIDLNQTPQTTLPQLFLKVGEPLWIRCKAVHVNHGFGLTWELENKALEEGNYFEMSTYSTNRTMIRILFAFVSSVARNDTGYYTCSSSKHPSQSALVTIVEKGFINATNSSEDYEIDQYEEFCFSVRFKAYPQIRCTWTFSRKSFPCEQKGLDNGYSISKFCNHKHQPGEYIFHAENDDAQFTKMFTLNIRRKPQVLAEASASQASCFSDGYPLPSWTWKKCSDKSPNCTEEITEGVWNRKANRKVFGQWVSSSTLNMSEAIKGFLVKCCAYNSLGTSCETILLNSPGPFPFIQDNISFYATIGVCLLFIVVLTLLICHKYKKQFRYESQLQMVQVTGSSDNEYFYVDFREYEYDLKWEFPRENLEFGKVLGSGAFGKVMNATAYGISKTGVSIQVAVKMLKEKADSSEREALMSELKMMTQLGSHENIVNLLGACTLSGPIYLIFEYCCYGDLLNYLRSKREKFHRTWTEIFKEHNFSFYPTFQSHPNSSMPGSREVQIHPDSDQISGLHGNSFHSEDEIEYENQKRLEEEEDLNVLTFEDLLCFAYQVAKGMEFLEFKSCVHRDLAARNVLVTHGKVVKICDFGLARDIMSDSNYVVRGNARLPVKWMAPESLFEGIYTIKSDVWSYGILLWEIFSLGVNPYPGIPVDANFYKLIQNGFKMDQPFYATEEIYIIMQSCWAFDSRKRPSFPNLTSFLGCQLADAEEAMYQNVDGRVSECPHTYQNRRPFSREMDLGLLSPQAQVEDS
- ASSAY INFO: Z'-Lyte FRET kinase assay (Invitrogen), Flt3
- Assay type: biochemical
- CONDITION SET: read-out: IC50, activity toward kinase Flt3
pIC50: −log10 of the molar value.
Collected pIC50 values appear next to each entry.

Recorded results for 2 compounds are shown here.
CCCC(=O)Nc1ccc(F)c(Cc2c[nH]c3ncc(-c4cccnc4)cc23)c1F
≥ 5.00
CCCS(=O)(=O)Nc1ccc(F)c(C(=O)c2c[nH]c3ncc(-c4cccnc4)cc23)c1F
≥ 5.00

// below: pIC50 requested for another compound
Q) Answer with the recorded pIC50 for the compound listed here: OCCOc1ccc(F)c(Cc2c[nH]c3ncc(-c4cccnc4)cc23)c1F
A) ≥ 5.00

====

The following are reported IC50 results, target or system Fms (Homo sapiens, UniProt P07333).

Recorded results for 5 compounds are shown here.
O=C(c1cccc(C(F)(F)F)c1)c1c[nH]c2ncc(-c3cccnc3)cc12
≤ 10 µM
CCCS(=O)(=O)Nc1ccc(F)c(C(=O)c2c[nH]c3ncc(-c4ccc(C(=O)N(C)C)cc4)cc23)c1F
≤ 10 µM
COc1ccc(F)c(C(=O)c2c[nH]c3ncc(-c4cccnc4)cc23)c1F
≤ 10 µM
CCCCNC(=O)Nc1ccc(F)c(C(=O)c2c[nH]c3ncc(-c4cccc(S(C)(=O)=O)c4)cc23)c1
≤ 10 µM
CCCCNC(=O)n1ccc2c(C(=O)c3c[nH]c4ncc(-c5ccccc5)cc34)cccc21
≤ 10 µM

Q) Answer with the recorded IC50 for the compound listed here: O=C(c1cccc(O)c1)c1c[nH]c2ncc(-c3cccnc3)cc12
A) ≤ 10 µM

Q) Answer with the recorded IC50 for the compound listed here: CCCS(=O)(=O)Nc1ccc(F)c(C(=O)c2c[nH]c3ncc(OC)cc23)c1F
A) ≤ 10 µM

Q) Answer with the recorded IC50 for the compound listed here: O=C(Nc1ccc(Cl)cc1)Nc1cccc(C(=O)c2c[nH]c3ncc(-c4cccnc4)cc23)c1
A) ≤ 10 µM

====

pIC50: −log10 of the molar value.
The following are reported pIC50 results, target or system Abl (Homo sapiens).

CCCS(=O)(=O)Nc1ccc(F)c(C(=O)c2c[nH]c3ncccc23)c1F
≥ 5.00

Q) GET pIC50 where system = Abl (Homo sapiens) and item = COc1cc(O)cc(Cc2c[nH]c3ncc(-c4ccsc4)cc23)c1
Sequence (P00519 with tags, fused parts or gaps): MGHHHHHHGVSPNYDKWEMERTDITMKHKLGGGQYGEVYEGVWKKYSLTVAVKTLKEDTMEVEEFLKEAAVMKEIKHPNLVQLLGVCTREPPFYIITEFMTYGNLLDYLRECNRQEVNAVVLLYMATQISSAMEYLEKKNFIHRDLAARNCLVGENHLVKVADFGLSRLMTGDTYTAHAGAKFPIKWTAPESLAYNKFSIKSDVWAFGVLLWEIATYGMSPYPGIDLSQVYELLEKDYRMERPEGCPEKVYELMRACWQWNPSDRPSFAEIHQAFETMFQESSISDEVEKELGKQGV
A) ≥ 5.00

====

- SYSTEM UNDER TEST: UniProt:P08631
PROPERTY MEASURED: IC50

Q) Answer with the recorded IC50 for the molecule listed here: CCCS(=O)(=O)Nc1ccc(F)c(C(=O)c2c[nH]c3ncc(OC)cc23)c1F [Compound P-0806]
A) ≤ 10 µM

====

Collected pIC50 values appear next to each entry.
- SYSTEM UNDER TEST: B-Raf V600E (Homo sapiens, UniProt P15056, V600E)
- Construct: P4254. pFastBacBD-CDC37 BRAF D437-K722-X, V600E; His6 with pFastBac HT leader (TEV site) (N); made in house; host or cells: Sf9 (baculovirus; chaperone CDC37 co-expressed)
- Sequence (P15056 with tags, fused parts or gaps V600E): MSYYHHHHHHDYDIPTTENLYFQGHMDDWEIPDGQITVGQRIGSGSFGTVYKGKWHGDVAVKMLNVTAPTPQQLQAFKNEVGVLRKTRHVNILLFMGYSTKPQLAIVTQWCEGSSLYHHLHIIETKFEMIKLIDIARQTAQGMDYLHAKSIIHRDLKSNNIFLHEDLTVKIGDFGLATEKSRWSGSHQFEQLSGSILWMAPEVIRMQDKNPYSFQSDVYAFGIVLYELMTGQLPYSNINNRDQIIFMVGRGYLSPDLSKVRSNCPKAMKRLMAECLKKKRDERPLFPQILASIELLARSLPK
- ASSAY INFO: AlphaScreen kinase assay, B-Raf V600E
- Format: biochemical
- CONDITION SET: read-out: IC50, activity toward kinase B-Raf V600E
pIC50: −log10 of the molar value.

CCCS(=O)(=O)Nc1ccc(F)c(C(=O)c2c[nH]c3ncc(-c4ccc(N5CCOCC5)nc4)cc23)c1F [Compound P-1881]
≥ 5.00
Oc1cccc(C(O)c2c[nH]c3ncc(-c4cccs4)cc23)c1 (stereo not shown) [Compound P-0710]
≥ 5.00

Q) Answer with the recorded pIC50 for the compound listed here: O=C(COc1ccc(F)c(Cc2c[nH]c3ncc(-c4cccnc4)cc23)c1F)NCc1ccccc1 [Compound P-1469]
A) ≥ 5.00

Q) Answer with the recorded pIC50 for the compound listed here: COC(=O)COc1ccc(F)c(Cc2c[nH]c3ncc(-c4cccnc4)cc23)c1F [Compound P-1465]
A) ≥ 5.00

====

- SYSTEM UNDER TEST: B-Raf (Homo sapiens)
- Construct: purchased Upstate Biotechnology
- ASSAY INFO: AlphaScreen kinase assay, B-Raf
- Type: biochemical
- CONDITION SET: read-out: IC50, activity toward kinase B-Raf
PROPERTY MEASURED: IC50

Recorded results for 10 molecules are shown here.
O=C(c1c(F)ccc(NS(=O)(=O)c2ccsc2)c1F)c1c[nH]c2ncc(Br)cc12
≤ 10 µM
COC(=O)c1ccc(S(=O)(=O)Nc2ccc(F)c(C(=O)c3c[nH]c4ncc(Cl)cc34)c2F)o1
≤ 10 µM
Oc1cccc(Cc2c[nH]c3ncc(-c4cccnc4)cc23)c1F
≤ 10 µM
COc1cc(NC(=O)Nc2cccc(C(=O)c3c[nH]c4ncc(Cl)cc34)c2)cc(C(F)(F)F)c1
≤ 10 µM
Oc1cccc(Cc2c[nH]c3ncc(-c4cccs4)cc23)c1F
≤ 10 µM
CCCS(=O)(=O)Nc1ccc(F)c(C(=O)c2c[nH]c3ncc(C(=O)OC)cc23)c1F
≤ 10 µM
Nc1ccc(F)c(C(=O)c2c[nH]c3ncc(-c4cccnc4)cc23)c1F
≤ 10 µM
CN(C)S(=O)(=O)Nc1ccc(F)c(C(=O)c2c[nH]c3ncc(-c4cccnc4)cc23)c1F
≤ 10 µM
O=C(c1c(F)ccc(NS(=O)(=O)c2ccc(F)cc2)c1F)c1c[nH]c2ncccc12
≤ 10 µM
O=C(c1c(F)ccc(NS(=O)(=O)c2ccccc2)c1F)c1c[nH]c2ncccc12
≤ 10 µM

Q) Answer with the recorded IC50 for the molecule listed here: COC(=O)Nc1ccc(F)c(Cc2c[nH]c3ncc(-c4cccnc4)cc23)c1F
A) ≤ 10 µM

Q) Answer with the recorded IC50 for the molecule listed here: Cc1c(O)cccc1C(=O)c1c[nH]c2ncc(-c3ccccc3)cc12
A) ≤ 10 µM

Q) Answer with the recorded IC50 for the molecule listed here: CCCS(=O)(=O)Nc1ccc(F)c(C(=O)c2c[nH]c3ncc(-c4cccnc4)cc23)c1F
A) ≤ 10 µM

Q) Answer with the recorded IC50 for the molecule listed here: CC(=O)Nc1cccc(-c2cnc3[nH]cc(C(=O)c4cccc(O)c4F)c3c2)c1
A) ≤ 10 µM

Q) Answer with the recorded IC50 for the molecule listed here: Nc1cccc(-c2cnc3[nH]cc(C(=O)c4cccc(O)c4)c3c2)c1
A) ≤ 10 µM

Hey, just so you know, these numbers are from patent US8415469B2.
